assay: growth inhibitors of H69AR lung tumor, primary screen, human, duplicate replicates (AID 580); conditions: H69AR lung tumor cells viability, ATP luminescence, 72 h; at 10 µM; hits give low values;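 note: 100% = mean luminescence of untreated wells and 0% = no signal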
# label = condition met if viability < 90% else condition not met

Consider the worked cases shown below.
A record lists Cc1ccc(C(=O)CSc2nnc(CNc3ccc(C)cc3C)o2)cc1 . Is its viability below 90%?
condition met

For O=C(CCn1c(=O)c2sccc2n(CC(=O)NCc2ccco2)c1=O)NCc1ccccc1 , is the recorded viability below the cut-off of 90%?
condition not met

Would you kindly verify if viability of Cc1ccc2nc(-c3ccc(S(=O)(=O)N4CCOCC4)cc3)cn2c1 is strictly less than 90%?
condition not met

API: query returns whether the compound falls strictly under 90% in viability. Query: CN1/C(=C\C(=O)Nc2cccnc2)c2ccccc2CC1(C)C
condition met

Is viability strictly under 90% for the entry Cc1ccnc(N2CCN(C(=O)CSc3nc4ccccc4nc3N3CCCCC3)CC2)c1 ?
condition not met

***
Please let me know if Cc1nc(C)n(C(C)CC(=O)O)n1 (configuration not stated) shows viability below 90%.
condition not met

Below 90% on viability? Entry O=C(NCN1CCCCC1)c1cccnc1
condition not met

Please state whether viability is below 90% for CCn1nnnc1SCC(=O)Nc1nc(-c2cccs2)cs1
condition met

viability under 90%? Item: O=C(O)C1CCCN1C(=O)c1cccs1 (configuration not stated)
condition not met

* * *

experiment: SK-BR-3 cell growth inhibitors, pilot screen, 24 h, human (AID 572); settings: SK-BR-3 viability, CellTiter-Glo luminescence, at 10 µM, hits give low values;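 note: compound exposure lasted between 18 and 24 h rather than exactly 24 h; 100% = carrier-treated control wells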
measuredProperty: viability (%)
Report the value in % with no unit label.

The examples below pair each entry with its known result.
For the compound shown here, COCc1[nH]nc2c1C(c1cc(OC)c(O)c(OC)c1)C(C#N)=C(N)O2 (configuration not stated) , give the reported viability.
98

Could you share which viability value was measured for CCc1c(C)c2ccc(OCC(=O)OC)cc2oc1=O ?
109

# viability lookup, item CCOC(=O)c1c(C)oc2ccc(NS(=O)(=O)c3ccc4c5c(cccc35)C(=O)N4)cc12
103

Consider the compound shown here: CC(C)CCNC(=O)C(c1ccco1)N(CC1CCCO1)C(=O)Cn1nnc2ccccc21 (configuration not stated) What is its recorded viability?
100

I am curious: what viability value has been reported for CN1C(=O)c2oc3ccccc3c(=O)c2C1c1ccccn1 (configuration not stated) ?
105

Let us examine a further case.
# lookup: viability of C=CCNc1nnc(SC2CC(=O)N(c3ccc(OC)cc3)C2=O)s1 (configuration not stated)
107

* * *

assay: HUVEC growth inhibition – cell-based, human, primary screen (AID 575); conditions: HUVEC proliferation, CellTiter-Glo luminescence, 72 h; at 10 µM;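 note: 100% = median of untreated cell wells with 0.1% DMSO on each plate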
Activity calls are given as the source filed them.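 Rule for the calls: active = viability at or below 30% in both replicate assays; inconclusive = viability at or below 30% in just one of the two assays; inactive = the rest.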
Valid outcomes are listed here; reply with one: Y for active, N for inactive

The following compounds have reported results that may help.
# fetch the recorded call for Cc1ccc(-c2[nH]nc3c2C(c2ccoc2)C(C#N)=C(N)O3)cc1C (stereo unspecified) here
N

Outcome? O=C(CCCCn1c(=O)[nH]c2ccsc2c1=O)NCc1cccnc1
N

// return assay outcome for O=C(C1CCCN(S(=O)(=O)c2cccc3nonc23)C1)N1CCC(Cc2ccccc2)CC1 (stereo unspecified)
N

Per the records of this test, what outcome belongs to O=C(NCCCN1CCCC1=O)C1CCN(S(=O)(=O)N2CCOCC2)CC1 ?
N

# outcome recorded in this test, key = CCOc1ccccc1C1CC(=O)Nc2cc3c(cc21)OCO3 (stereo unspecified)
N

Further cases:
Test call for this compound, please: O=C(O)c1cnn2c1NC(c1ccc(F)cc1)CC2C(F)(F)F (stereo unspecified)
N

How did this test come out for O=c1c2[nH]c3cccc(Cl)c3c2ncn1CCN1CCCCC1 ?
N

Recorded test call requested for CCOC(=O)C1=C(N)OC2=C(C(=O)CC(C)(C)C2)C1c1ccoc1 (stereo unspecified)
N

Can you look up the reported call for Cn1nc(CC(=O)Nc2ccc(N3CCN(C(=O)OC(C)(C)C)CC3)cc2)c2ccccc2c1=O for me?
Y

Field: outcome | Entry: Clc1ccc(-c2nnc3sc(-c4ccc(Br)o4)nn23)cc1
N

Query: recorded result category for Cc1nc2cc(NC(=O)N3c4ccccc4CC3C)ccc2o1 (stereo unspecified) in this test
N

* * *

assay: reversal of MRP1-mediated doxorubicin resistance, pilot screen, H69AR cells, doxorubicin co-treatment (AID 601); conditions: H69AR cells + 2 uM doxorubicin, CellTiter-Glo, 72 h; at 10 µM; hits give high values
measuredProperty: differential viability (reversal) (%)
# value in %; strip the unit string

Before answering, review these 3 worked examples.
Entry c1ccc(CSCc2cn3ccsc3n2)cc1 has what differential viability (reversal)?
14.5

Look at this compound and give its reported differential viability (reversal). CCOc1ccc(OCC)c2sc(C)nc12
12.4

Given the compound CC(=O)Nc1ccc(Cc2ccncc2)cc1 , what is its reported differential viability (reversal)?
8.84

New cases:
Given Cc1ccc(-c2nnnn2CS(=O)(=O)c2ccccc2)cc1 , state its recorded differential viability (reversal).
5.26

Value lookup for differential viability (reversal); key = O=C(CN1CCN(Cc2ccc3c(c2)OCO3)CC1)N1CCc2[nH]c3ccc(F)cc3c2C1
-8.87

Quick one: differential viability (reversal) of Cc1cc(C)c2c(n1)nn1c(NCCCN3CCOCC3)cc(C)nc21 ?
7.13

* * *

assay: 384-well plate pilot, post-Golgi transport modulator project, inhibition of yeast transport mutant growth (AID 636); details: absorbance 615 nm, about 18 h, hits give high values
Listed next: entries and their corresponding inhibition.
Numbers only; they are read as %.

Answered cases to consult:
Reported inhibition, molecule CCOC(=O)C1CCN(C(C)=C2C(=O)c3ccccc3C2=O)CC1 : ____
-4.66

What value of inhibition has been recorded for this entry: O=c1c2ccccc2nc(SCc2cn3ccsc3n2)n1-c1ccc(F)cc1
-6.44

Bench note: what inhibition did CCOC(=O)CNC(=O)CSc1nnnn1-c1cc(C)ccc1C show?
-2.08

Need inhibition, item O=[n+]1cc(-c2ccc(F)cc2)n([O-])c2c1CCC2
-1.82

Which inhibition reading was recorded for the molecule COc1cccc(OC)c1C(=O)N1CCOCC1 ?
-1.84

What value of inhibition has been reported for the following molecule? CCOc1ccc(N(C)S(=O)(=O)c2ccc3[nH]cc(C(=O)NCC4CCCO4)c(=O)c3c2)cc1 (stereo not given)
-2.86

Which inhibition value is on record for c1ccc2c(c1)nc(-c1ccncc1)n1nnnc21 ?
-6

// lookup inhibition for CC(C)CCNC(=O)C(c1ccco1)N(CC1CCCO1)C(=O)Cn1nnc2ccccc21 (stereo not given)
-0.67

---
Quick one: inhibition of COc1ccc(S(=O)(=O)N2CCN(S(=O)(=O)c3ccc4c(c3)OCCO4)CC2)cc1C ?
-5.33

Please report the recorded inhibition for COc1ccc(N(CC(=O)Nc2ccc(F)c(Cl)c2)S(=O)(=O)c2c(C)noc2C)cc1 .
-1.07

* * *

assay: HUVEC growth inhibition – cell-based, human, primary screen (AID 575); settings: HUVEC proliferation, CellTiter-Glo luminescence, 72 h; at 10 µM; hits give low values;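 note: 100% = median of untreated cell wells with 0.1% DMSO on each plate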
Known viability of a selection of compounds
# output: bare number, implied unit %

Examples from the recorded data:
Any idea what its viability is? The compound is Cc1ccc(C2/C(=C(/O)c3cnn(-c4ccccc4)c3C)C(=O)C(=O)N2CCN2CCOCC2)o1 (configuration not stated)
112

For the compound shown here, CC(=O)N1CCc2cc(S(=O)(=O)CCC(=O)Nc3cccc(F)c3)ccc21 , give the reported viability.
97.3

What value of measured viability is listed for CCOc1ccc(NC(=O)CC2NCCNC2=O)cc1 (configuration not stated) ?
108

Name the recorded viability for O=c1[nH]c(N2CCCCC2)nc2c1CCCC2 .
96.2

Entry CC(=O)c1ccc(NC(=O)CCc2c(C)nc3ncnn3c2C)cc1 has what viability?
87.5

Then there is this compound:
Endpoint output: viability of O=C(Nc1ccc(N2CCCC2=O)cc1)c1cccc(F)c1 . Value?
109

* * *

viability increase reference
test: viability gain of MRP-1-high H69AR cells under doxorubicin, pilot screen, MRP-1 activator project, CellTiter-Glo, duplicate (AID 807); details: H69AR viability with doxorubicin, CellTiter-Glo luminescence; at 10 µM; hits give high values;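 note: compound pretreatment 18-22 h then 72 h combined with doxorubicin; 0% = doxorubicin alone and 100% = vehicle without doxorubicin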
Just the number in %, nothing appended.

Reference set, count: 6
Form field: reported viability increase of COc1ccc(N2C(=O)CC(N3CCCC4CCCCC43)C2=O)cc1 (stereo not given)
-0.71

// lookup viability increase for COc1ccc(/C=N/n2cnnc2SCc2ccc(OC)cc2)cc1
3.56

Record request: viability increase value, item O=C(Oc1cc2oc(=O)c3c(c2cc1Cl)CCCC3)c1ccco1
-3.67

Recorded viability increase for CC12COC3(C(=O)Nc4ccc(Cl)cn4)CC1CCC32C (stereo not given) , please?
-0.46

Form field: reported viability increase of Cc1cccc(OCC(=O)N2CCC(c3ccccc3)C2)c1 (stereo not given)
-0.58

Reported viability increase for O=C(NCc1nnc(SCC(=O)N2CCC(Cc3ccccc3)CC2)o1)c1ccccc1F : what is it?
-0.76

Further cases:
Item under review: Cc1onc(-c2ccccc2Cl)c1C(=O)NCCn1c(C)cc2ccccc21 . Reported viability increase?
-2.02

I am curious: what viability increase value has been reported for N#Cc1c(NC(=O)COC(=O)C2CC3C=CC2C3)oc(-c2ccccc2)c1-c1ccccc1 (stereo not given) ?
-5.47

Consider the compound shown here: Cc1csc(NC(=O)CSc2nnc(Cc3cccn3C)n2-c2ccc(F)cc2)n1 What is its recorded viability increase?
-2.25

What measured viability increase goes with CC(NC(=O)c1cn(C)c2ccc(S(=O)(=O)N3CCCC3)cc2c1=O)c1ccc2c(c1)OCCO2 (stereo not given) ?
-4.7

Record request: viability increase value, item CCOc1ccccc1N1C(=O)c2ccc(C(=O)Nc3cccnc3)cc2C1=O
0.54

Entry Cc1[nH]c2ccccc2c1Cc1nnc(SCC(=O)NCc2ccco2)o1 : reported viability increase = ?
-3.96

Could you share which viability increase value was measured for N#Cc1ccccc1Cn1c(=O)n(Cc2ccc(C(=O)NCc3ccco3)cc2)c(=O)c2sccc21 ?
-4.44

Would you kindly share the measured viability increase for Cc1ccc(CCNC(=O)C2CCCN2S(=O)(=O)c2ccc3c(c2)CCC(=O)N3)cc1 (stereo not given) ?
3.43
